Test system: Saccharomyces cerevisiae
Test: protein stability index of tFT-peptide fusion (C-terminal peptide) (PSI (0-1 scale)); higher = more stable (slower turnover)
Conditions: genetic background: doa10 deletion; temperature: 30 C
# protein stability index values compiled below
measurement.name: protein stability index

RRGGNIVWYCLV; 0.125
VIVQSWEIIRLN; 0.0878
SINKLLILIKSI; 0.0798
NWAIEIRSVKIV; 0.148
GGMGLWCCVSVG; 0.513
TYKHIVRVNKCE; 0.179
FYIRFYVYSWLF; 0.278
SLLFPLPRPLLD; 0.686
WFLVFLRVGDGP; 0.353
EGGGGRFWVCVG; 0.258
GVSLQLHVAVLI; 0.275
FELSVSVFQSVV; 0.409
LSVRLYRTVFLV; 0.0603
CFVISVLFFFVG; 0.284
LVDPFAALRHVV; 0.15
WLYPVFKISYCV; 0.282
LASSCYRHLLVV; 0.0628
GGSLWLVHLKTI; 0.118
LVIFSLLFSFSH; 0.194

###

# protein stability index values compiled below
Tested on: Saccharomyces cerevisiae
Assay: protein stability index of tFT-peptide fusion (C-terminal peptide) (PSI (0-1 scale)); higher = more stable (slower turnover)
Settings: genetic background: wild type; temperature: 30 C
measurement.name: protein stability index

PSPPLPPPYPLP; 0.716
YLFVRTGYRCKW; 0.681
GRGVWEFGGGGG; 0.666
SHLPPRSPPVPS; 0.682
FFMLWCRVLLRL; 0.219
LLCLLLVPQPHR; 0.0268
PPPSHPLSPPRP; 0.717
GLKTLQTCRIIR; 0.691
EHKRQRPVTRLP; 0.672
HYSPLPSLPPLP; 0.684

###

# protein stability index values compiled below
Tested on: Saccharomyces cerevisiae
Experiment: protein stability index of tFT-peptide fusion (C-terminal peptide) (PSI (0-1 scale)); higher = more stable (slower turnover)
Conditions: genetic background: das1 deletion; temperature: 30 C
measurement.name: protein stability index

LRSCDLKRKSKK [YLR302C C-terminal 12 aa]; 0.678
YEPTDWECTDAP [YJR096W C-terminal 12 aa]; 0.725
LPQSTLQENQLS [SKN7 C-terminal 12 aa]; 0.706
WLSKSGSSAALP [TOS1 C-terminal 12 aa]; 0.717
QEISYKFSKTYS [IME1 C-terminal 12 aa]; 0.676
PLMFHCTRWEVD [GEP5 C-terminal 12 aa]; 0.691
TSHEAVAAKKLI [SHC1 C-terminal 12 aa]; 0.673
CKDQTVTQILAT [DMO1 C-terminal 12 aa]; 0.653
RAQPGRKRKHKK [RSC58 C-terminal 12 aa]; 0.743
CRGIAEVNMKYT [PPS1 C-terminal 12 aa]; 0.687
FIRKIYSAIKVE [TMN2 C-terminal 12 aa]; 0.385
KVSPADAAKKAL [RPS26A C-terminal 12 aa]; 0.704
VYEYIVNVNEYA [CPS1 C-terminal 12 aa]; 0.695
KPGLTVYSIELL [SMP3 C-terminal 12 aa]; 0.69
SDQKGGRSVSTS [YLR001C C-terminal 12 aa]; 0.69
LAWNPNLSAKRF [PRP46 C-terminal 12 aa]; 0.71
FFMIMVMVINFI [FIG2 C-terminal 12 aa]; 0.195
KNSNLSPTQIEL [SSK1 C-terminal 12 aa]; 0.708
LPNTISSETFLK [SCEI C-terminal 12 aa]; 0.661
LAFIAACKKYIY [IKS1 C-terminal 12 aa]; 0.696
FRSQRLHMDSKP [BUD27 C-terminal 12 aa]; 0.727
VQNLIAAVMGEL [PNP1 C-terminal 12 aa]; 0.719
LNRKWYTRFFFP [MNN10 C-terminal 12 aa]; 0.732
FFTKLFKKKSSR [MSC3 C-terminal 12 aa]; 0.705
RKGWTGFKKVFK [GYP5 C-terminal 12 aa]; 0.695

Source listed as the supplement of paper PMC10724198.
